Measured values drawn from the supplement of paper PMC10646978 for this set.

- System: RAW-Dual (murine macrophage reporter line)
- TEST PROTOCOL: IRF reporter (Lucia luciferase) activity fold change vs agonist alone; higher = enhanced IRF activity
- ASSAY SETUP: modulator concentration 10 µM; agonist: 3'3'-cGAMP 10 ug/mL
IRF reporter below 0.9 gives not fulfilled; IRF reporter at or above it gives fulfilled.

Here are 3 compounds together with their reported answers.
O=c1ccc2ccc(OCCCCN3CCN(c4cccc5sccc45)CC3)cc2[nH]1 :: fulfilled
Cc1ccc(NC(Nc2ccc(C)cc2)=C(C(Cl)=C(Cl)Cl)[N+](=O)[O-])cc1 :: not fulfilled
COC(=O)/C=C/C(=O)OC :: not fulfilled

QUERY: Check if IRF reporter >= 0.9 (inclusive). Item: "O=C(O)CSc1nnc(Br)n1-c1ccc(C2CC2)c2ccccc12"
RESULT: not fulfilled

QUERY: Quick check, IRF reporter >= 0.9? "C=CCN1C(=O)C(C)(C)COc2cc(NC(=O)c3ccc(Br)o3)ccc21"
RESULT: not fulfilled

QUERY: Threshold query (IRF reporter >= 0.9) on "O=C1c2ccccc2C(=O)c2c1ccc(O)c2O"
RESULT: fulfilled

QUERY: Threshold query (IRF reporter >= 0.9) on COc1ccc(C2CC(=O)c3c(O)cc(O)cc3O2)cc1O (stereo not given)
RESULT: not fulfilled

QUERY: In plain terms: is recorded IRF reporter at least 0.9 for Cc1cn2c(nc1=O)OC1C(O)C(CO)OC12 (stereo not given) ?
RESULT: fulfilled

* * *

- Test system: RAW-Dual (murine macrophage reporter line)
- TEST PROTOCOL: NF-kB reporter (SEAP) activity fold change vs agonist alone; higher = enhanced NF-kB activity
- ASSAY SETUP: modulator concentration 10 µM; agonist: LPS 0.1 ug/mL
ATTRIBUTE MEASURED: NF-kB reporter

Solved entries:
CS(=O)(=O)N(CC(=O)Nc1ccccc1Cl)c1ccc(Cl)c(C(F)(F)F)c1 :: 1.08
CCOC(=O)c1cc(-c2ccccc2)sc1NC(=O)C(C)(C)C :: 0.907
COCCNCCOc1cc(C)c(Cl)c(C)c1 :: 0.952
Cl.Clc1ccc2nsnc2c1NC1=NCCN1 :: 0.932
CN1CCC(=C2c3ccccc3C=Cc3ccccc32)CC1.Cl :: 0.808
COc1ccc(C=NNC(=O)CSc2nnc(-c3ccncc3)n2-c2ccccc2)cc1OC :: 1
COC(=O)c1ccc(CN2CCc3ccccc3C2)cc1 :: 1.17
C=C1CCC2C(C)(CO)C(O)CCC2(C)C1CC=C1C(=O)OCC1O (stereo unspecified) :: 0.496

QUERY: Quick one: NF-kB reporter for "O=C(Oc1ccc2oc(=O)sc2c1)c1ccccc1" ?
RESULT: 0.917

QUERY: // NF-kB reporter lookup, key: COC(=O)C1=C(C)NC(=O)CC1c1cc([N+](=O)[O-])ccc1Cl (stereo unspecified)
RESULT: 0.986

QUERY: # lookup: NF-kB reporter of "COc1cc(C=Cc2nc3ccccc3nc2O)cc(OC)c1"
RESULT: 1.06

QUERY: Consider the compound shown here: O=C(O)CCCCC1CCSS1 (stereo unspecified) What is its recorded NF-kB reporter?
RESULT: 0.968

QUERY: What NF-kB reporter value was documented for this compound, "O=C(NCCCOc1cccc2cccnc12)c1cnccn1" ?
RESULT: 0.979

QUERY: Recorded NF-kB reporter of "Cc1[nH]c2ccccc2c1CCNCc1ccc(/C=C/C(=O)NO)cc1" , please.
RESULT: 1.58

QUERY: # input compound: CCN(Cc1ccncc1)C(=O)C(CO)c1ccccc1 (stereo unspecified) ; wanted: its NF-kB reporter
RESULT: 0.997

QUERY: Given the entry COC(=O)C1C(O)CCC2CN3CCc4c([nH]c5ccccc45)C3CC21.Cl (stereo unspecified) , report its measured NF-kB reporter.
RESULT: 0.917

QUERY: Using the record for "O=C(Nc1ccc(NS(=O)(=O)c2ccccc2)cc1)c1ccco1" , report its NF-kB reporter.
RESULT: 0.922

QUERY: # query: NF-kB reporter of entry CNC1CCC(c2ccc(Cl)c(Cl)c2)c2ccccc21.Cl (stereo unspecified)
RESULT: 0.765

QUERY: Would you mind telling me what NF-kB reporter value was observed for "CN(C)c1ccc(C=NN2C(=O)c3cccc4cccc(c34)C2=O)cc1" ?
RESULT: 1.1

QUERY: For the compound C=Cc1c(C)c2cc3nc(cc4[nH]c(cc5nc(cc1[nH]2)C(C)=C5CCC(=O)O)c(CCC(=O)OC)c4C)[C@@]1(C)C3=CC=C(C(=O)OC)C1C(=O)OC (stereo partly specified) , what NF-kB reporter is on record?
RESULT: 0.869

QUERY: Bench note: what NF-kB reporter did COc1ccc(CC(C)N2CCN(c3cccc(C)c3C)CC2)cc1OC (stereo unspecified) show?
RESULT: 0.974

QUERY: NF-kB reporter for "Cl.N=C(N)NC(=O)c1nc(Cl)c(N)nc1N" ?
RESULT: 1.15

QUERY: Fill in the blank: the reported NF-kB reporter of "N=C(N)Nc1ccc(Cl)cc1" is ____.
RESULT: 1.05

QUERY: Requested field: NF-kB reporter. Item: "c1ccc(Nc2nc(Nc3ccccc3)nc(N3CCCCC3)n2)cc1"
RESULT: 1.01

QUERY: If you can, please state the reported NF-kB reporter value of "CCCCc1ncc(/C=C(\Cc2cccs2)C(=O)O)n1Cc1ccc(C(=O)O)cc1.CS(=O)(=O)O" .
RESULT: 1.11

QUERY: Give the measured NF-kB reporter of CC1=CCCC(=O)C2CC(C)(C)C2CC1 (stereo unspecified) .
RESULT: 0.857

QUERY: Please give the measured NF-kB reporter for this compound: Cc1ccccc1C(=O)Nc1ccc(C(=O)N2CCCC(O)c3cc(Cl)ccc32)c(C)c1 (stereo unspecified)
RESULT: 1.09

QUERY: Please give the measured NF-kB reporter for this compound: "COc1ccc(CCNc2nnc(Cc3ccc(Cl)cc3)c(=O)[nH]2)cc1OC"
RESULT: 1.1

QUERY: I am curious: what NF-kB reporter value has been reported for CC1CCc2nnc(OCC3CCCN3C)cc2C1 (stereo unspecified) ?
RESULT: 0.793

QUERY: Can you look up the measured NF-kB reporter of "CN(C)CC/C=C1/c2ccccc2Sc2ccc(Cl)cc21" for me?
RESULT: 1.02

QUERY: Find the recorded NF-kB reporter belonging to "CC1=NN(c2ccc(S(N)(=O)=O)cc2)C(=O)C1=Cc1ccc(C)s1" and report it.
RESULT: 1.08

QUERY: So what's the measured NF-kB reporter for this one? "O=C1CN(C(=O)c2cc3ccccc3o2)c2ccccc2N1"
RESULT: 1.01

QUERY: I am curious: what NF-kB reporter value has been reported for "CN(C)CCOC(=O)COc1ccc(Cl)cc1.Cl" ?
RESULT: 1.09

QUERY: # lookup: NF-kB reporter of COC(=O)CNC(c1ccccc1)c1cc(Br)ccc1NC(=O)c1ccccc1Cl (stereo unspecified)
RESULT: 1.08

QUERY: Quick check: NF-kB reporter of Cc1cc(OCC(O)Cn2cnc3ccccc32)ccc1Cl (stereo unspecified) ?
RESULT: 1.1

QUERY: Reported NF-kB reporter for "CCS(=O)(=O)c1ccc(-c2ccc(NC(=O)c3cccc(OC)c3OC)cc2)nn1" : what is it?
RESULT: 0.977

* * *

Entries and their IRF reporter
- Tested on: RAW-Dual (murine macrophage reporter line)
- TEST PROTOCOL: IRF reporter (Lucia luciferase) activity fold change vs agonist alone; higher = enhanced IRF activity
- ASSAY SETUP: modulator concentration 10 µM; agonist: MPLA […]
// return just the number, without any unit appended

Below, 5 compounds whose answers are already recorded.
NC(=O)CCC(N)C(=O)O (configuration not stated) :: 0.999
Cc1ccc(Nc2cc(N3CCCCC3)c(N)c3c2C(=O)c2ccccc2C3=O)cc1 :: 1.12
CCn1cc(C(=O)O)c(=O)c2cc(F)c(N3CCN(C)CC3)cc21.CS(=O)(=O)O.O.O :: 1.07
CCCCN(CCCC)S(=O)(=O)c1ccc(N2CCCC2=O)c([N+](=O)[O-])c1 :: 1.13
CC12C=CC(CO)(O1)C1C(=O)NC(=O)C12 (configuration not stated) :: 0.32

QUERY: Given the compound "CN(C)C/C=C/C(=O)Nc1cc2c(Nc3ccc(F)c(Cl)c3)ncnc2cc1O[C@H]1CCOC1.O=C(O)/C=C\C(=O)O.O=C(O)/C=C\C(=O)O" , what is its reported IRF reporter?
RESULT: 0.855

QUERY: So what does the record say about IRF reporter for "O=C(NC(=S)NNc1ccccc1)c1cc2ccccc2oc1=O" ?
RESULT: 1.12

QUERY: What does the record list as IRF reporter for CSCCC(NC(=O)C(=Cc1ccccc1)NC(=O)c1ccco1)C(=O)O (configuration not stated) ?
RESULT: 1.49

QUERY: Returns the measured IRF reporter for the input compound. Input: "CC(=O)Nc1nc(C2CC2)cc(-c2ccco2)c1C#N"
RESULT: 1.17

QUERY: What value of IRF reporter has been recorded for this entry: "COc1cc2c(cc1OC)C(=S)NC1(CCCC1)C2"
RESULT: 1.28
